- ASSAY: yeast display, Sf9 membrane polyspecificity reagent, FACS + sequencing; frameworks hold sequencing errors
MEASURED_PARAMETER: polyreactivity (PSR sort gate)

1) QVQLVESGGALVQAGGSLRLSCAASGLTFEVYAMGWYRQAPGKESELVAAISSGGGSTYYADSVKGRFTISRDNAKNTVYLQMNSLKPEDTEVYYCNAVAKLYYWRYDYWGKGTQVTVSS    low polyreactivity
2) QVQLVESGGGLVQAGGSLRLSCAASGRIFNGYTMGWYRQAPGKETEFVATISRSGGSTYYADSVKGRFTISRDHAKNTVYLQMNSLKPEDSAVYYCAKTYPAKWEYDYWGQGTQVTVSS    low polyreactivity

====

- ASSAY: yeast display, Sf9 membrane polyspecificity reagent, FACS + sequencing; frameworks hold sequencing errors
MEASURED_PARAMETER: polyreactivity (PSR sort gate)

1) QVQLVESGGGLVQAGGSLRLNCSAYGSTFFDYVMGWYRQAPGKERDLVAAITRGGSSNYADSVKGRFTISRDNAKNTVYLQMNRLKPEDTAVYYCNAKRDKGFYWWYNYWGQGNQVTVSS    high polyreactivity
2) QVQLEESGGGLVQEGGSLRLICAASGRIFGSYVMGWYRQAPGKERELVAAISRRGGSTYYADSVKGRFTISRDNAKNTVYLQMNSLKTEVTAVYYCAAEFSPSSNPYDYWGQGTQVTVSS    high polyreactivity

====

- ASSAY: yeast display, Sf9 membrane polyspecificity reagent, FACS + sequencing; frameworks hold sequencing errors
MEASURED_PARAMETER: polyreactivity (PSR sort gate)

1) QVQLVESGGGLVQEGGSHRLSCAASASTFWSYTMGWYRQAPGKERELVAAISPSGGSTSYADSVKGRFTISRDHAKNTVYLQMNSLKPEDTAVYYGAADDRYGSRYSYWGHGTQVTVSS    high polyreactivity
2) QVQLVESGGGLDQAGVSLRLSCAATGRIFYHYAMGWYRHEPGKERELVASITTSGDSTYYADSVKGRFTISRDTAKNTVYLQMNSLKPEDTAVYYCAARSYRGSRYDYWGQGTQVTVSS    high polyreactivity
3) QVQHVETGRDLVQAGGSLRLSCAAAGLIFVSYAMGGYRQAPGKERELVASITDSDSSTYYADSVKGRFTISRDNAKNTVYLQMNSLKPEDTAVYYCATGGRTEIWYPTLDYWGQGTQVTVSS    low polyreactivity
4) QVQLVESGGGLVQAGGSLRLSCAASGSIYPDYDMGWYRQAPGKERELVAAISSSGDSTYYADSVKGRFTISRDNAKNTVYLQMNSLKPEDTAVYYCAVDGTRSTSNGSEFTGYNYWGQGTHVTVSS    low polyreactivity
5) QVQLVESGGGLVQAGGSLRLSCAASGSISDSNAMGSYRQAPGKERELVAAIDDSGGSTYYADSVKGRFTISRDNAKNTVYLQMNSLKPEDTAVYYCAKTKTQYLTSEIRFVYWGQGTQVTVSS    low polyreactivity
6) QVQLVESGGGLVQEGGSLRLSCAASGSTFIDYAMGWYRQAPGKERELVAAITNGGNTKYADSVKGRFTISRDNAKNTVYLQMHSLKPEETAVYYGAREPSIFTPSYDYWGQGTQVTVSS    low polyreactivity
7) QVQLVESGGGLVQAGGSLRLSCAASGSTFEHYTMGWYRQAPGKERELVAAINGRGGSTYYADSVKGRFTISRDNAKNTVYLQMNSLKPEDTAVYYCAAVYGFRDYDYWGQGTQVTVSS    high polyreactivity
8) QVQLVESGGGLVQAGGSLRLSCAASGRIFAANAMGWYRQAPGKERELVATISTGGGRTYYADSVKGRFTISRDNAKNTVYLQMNSLKPEDTAVYYCAASRGYLVPTRLAYYYWGQGTQVTVSS    high polyreactivity
9) QVQLVESGGGLVQAGGSLRLSCAASGSTFYVYAMGWYRQAPGTERELVAAIDYSDGSTYYADSVKGRFTISRDNAKNTVYLQMNSRKPEDTAVYYCAADTVSWFEYYYWGQGTQVTVSS    high polyreactivity
10) QVQLVESWGGLVQAGGSLRLSCADSGRIFRGYGMGWYIQAPGKERELVAVISYSGTPTYYADSVKGRFTISRDNAKNTVYLQMNSLKAEDTAVYYCAARLYWIPPSPSRYDYWLQGTQVTVSS    high polyreactivity
11) QVQLVESGGGLVQAGRTLRLSCAASGSNFSVYVMGWYRQAPGKEWELVAAISWSDSDTYYADSVKGRFTISRDNATNNVYLLMNSLNPEDTAVYYCAAETFDYHDYIANGSGEYDYWGQGNQVTVSS    high polyreactivity

====

- ASSAY: yeast display, Sf9 membrane polyspecificity reagent, FACS + sequencing; frameworks hold sequencing errors
MEASURED_PARAMETER: polyreactivity (PSR sort gate)

1. QVQLVESGGGLVQAGGSLRLSCAASGYTFRYNTLGGYSQAPGKEREFVAAISSGVGNTYFAVSVKGRFTISRDNAKNTVYLQMNSLKPEDTAVYYCNADYKSSYYWYLWYNYWGQGTQVTVSS    low polyreactivity
2. QVQLVVSGGGLVQAGGSLRLSCAASGSIFKKYAMGWYRQAPGKERELVAAITRGTYYADSVKGRFTISRDNAKNTVYLLMNSLNPEDTAVYYCNREYWVRGYYRVRGEYDYWGQGTQVTVSS    low polyreactivity

====

- ASSAY: yeast display, Sf9 membrane polyspecificity reagent, FACS + sequencing; frameworks hold sequencing errors
MEASURED_PARAMETER: polyreactivity (PSR sort gate)

1. QVHLVDSGGGLVQAGGSLRLSCAASGFIFSKYAMGWYRQAPGKERELVAAISWNGGSTYYADSVKGRFTISRDNAKNTVYLQMNSLKPEDTAVYYCNARGRYRKSERRAFDYWGQGTQVTVSS    high polyreactivity
2. QVQIVESGGGLVQAGGSLRLSCAASGFTFYYYAMGWYRQAPGKERELVAAIDTGGSTNYADSVKGRFTISRDNAKNTVYLQMNRLKPEDTSVYYCNADTPDHYGHYDYWGQGTQVTVSS    low polyreactivity
3. QVQLVESGGGLVQAGGSLRLSCAASGSTFKGYAMGWYRQAPGKERELVAAITWIGGSTTYADSVKGRFTISCDNAKNTVYLQMNSLKPEVTAVYYCAADNFWYFLSATEDYWGQGTQVTVSS    low polyreactivity
4. QVNLVESGGGLVQAGGSLRLSCAASGSIFSKNAMGWYRQAPGRERELVAAITSGASTNYADSVKGRFTISRDNAKNTVYLQMNSLKPEDTAVYYCASKRNGFWYGYWGQGTHVTVSS    low polyreactivity
5. QVQLVESGGGLVQAGGSLRLSCGASGSIFYQNVMGWYRQAPGKERELVAAISSSGDSTYYADSVKGRFTISRDNAKNTVYLQMNSLKPEDTAVYYCAAEPEYVSGPYDYWGQGTQVTVSS    low polyreactivity
6. QVQLVESGGGLVQAGGSLRLSCAASGRIFTWKGMGWYRQAPGKERELVARISSGTRTNYADSVKGRFTISRDNAKNTVYLQMNCLKPEDTAVYYFAAAAKRSDAYHNRRYYWGQGTQVTVSS    high polyreactivity
7. QVQLVESGGGLVQAGGSLRLSCAASGSIFEHNSMGWYSQAPGKERELGAAITISGGGTYYADSVKGRFTISRDNAKNTVYLQMNSLKPEDTAVYYCNRDKPGLVFTSYNYSSSYDYWGPGTQVTVSS    low polyreactivity
8. QVQLVESGGGLVQAGGSLRLSCAASGIIFYIYAMGWYRQAPGKERELVATISNDGGSTYYADSVKGRFTISRDNAKNTVYLQMNSLKPEDTAFFYCNADFADDKNYLFESELEYDYWGQGTQVTVSS    low polyreactivity
9. QVQLVESGGALVQAGGSLRLSCAASGFTFAWYAMGWYRQAPGKERELVAAISRSGGSTYYADSVKGRFTISRDNAKNTVYLQMNSLKPEDTAVYYCATRVYSYRKAGWYDYWGQGTQVTVSS    high polyreactivity
10. QVQLVESGGGLVQAGGSLRLSCAASGSTFHYYAMGWYRQAPGKERELVAAISSGGRTNYADSVKGRFTISRDNAKNTVYLQMNSLKPEDTAVYYCAARWSYTKGEFDYWGQGTQGTVSS    high polyreactivity
11. QVQLVESGGGLVQAGGSLRLSCAASGRIFSRNAMGWYRQAPGKERELVAAITYSGGSTYYADSVKGRFTISRDNAKNTVYLQMNSLKPEDTAVYYCNADLYLQLPESYEYDYWGQGTQVTVSS    high polyreactivity
12. QVQLVESGGRLVQAGGSLSLSCAASGFIFWSYAMGWYRPAPGKERELVAAISARGGSTYYADSVKGRFTISRDNAKNTVYLQMTSLKPEDTAVYYCATYPTYEYDYWGQGTQVTLSS    high polyreactivity
13. QVQLQESGGVLEQARGSLRLSCAASGFIFARNYMGWYSQAPGKERELVAGIGVGAITNYADSVKGRFTISRDNAKNTVYLQMNSLETEESAVYYCAVGDTVLGYHYYWGQGTQVTVSN    low polyreactivity
14. QVQLVESGGGLVQAGGSLRFSCAASGSIFITYAMGWSRQAPGKERELVAAIRDSGDRTYYADSVKGRFTISRDNAKNTVYLQMNSLKPEDTAVYYCNARWQEPLKYDYWGQGTQVTVSS    low polyreactivity
15. QVQLVESGGGLVQAGGSLRLSCAASGSIFYYYTMGWYRQAHGKESEFVATMTYSGGSTYYADSVKGRFTISRDNAKNTVYLQMNSLKPEDTAVYYCNARPRYYDWVDYWGQGTQVTVSS    low polyreactivity
16. QVQLVESGGGLVQAGGSLRLSCAASGGILSYNTMGWYRQAPGKERELVAAITSSGGRTYYADSVKGRFTISRDNAKNTVYLQMNSLKPEDTAVYYCNTVYYFTYYYWGQGTQVTVSS    high polyreactivity
17. QVQLVESGGGLVQAGGSLRLSCAASGSTFSNYALGWYSQAPGKERELVAAITSRGGRTYYADSVKGRFTISRDNAKNTVYLQMNSLKPEDTAVYYCAARVGSGRAIDLYYYWGQGTQVTVSS    low polyreactivity
18. QVQLVDSGGGLVQAGGSLRLSCAASVRIFYEYAMGWYRKAPGKERQFVASISRTDGGTYYADSVKGRFTISRDNAKNTVYLQMNSLKPEENAVYYCATRAYYNTEVYYWGQGTQVTVSS    high polyreactivity
19. QVQLVESGGGLVQAGGSLRLSCAASGFTFGTYDMGWYRQAPGKERELVAAIDWGGGSTYYADSVKGRFTISRDNAKNTFYLQMNSLKTEDTAFYYCAADGPGDYLTLEWYWFTYYYWGQGTQVTVTS    high polyreactivity
20. QVQLVESGGGLVQAGGSLRLSCAASGRIFRINDMGWYIQAPGKERELVAAITWSGGSTYYADSVKGRFTISRDNAKNPVYLPMNSLKPEDTAGYYCAADQAYFWGYYYWGQGTQVTVSS    low polyreactivity
21. QVQLVESGGGLVQAGGSLRLSCAASGFTISDNAMGWYRQAPGKERELVAAITSGTSTYYADSVKGRFTISRDNAKNTVYLQMNSLKPEDTAVYYCAARTYYSGYLWARGYWGQGTQVTVSS    high polyreactivity
